Biological target: DNA repair nuclease/redox regulator APEX1 (Homo sapiens) (UniProt P27695)
Sequence (P27695 whole entry, looked up): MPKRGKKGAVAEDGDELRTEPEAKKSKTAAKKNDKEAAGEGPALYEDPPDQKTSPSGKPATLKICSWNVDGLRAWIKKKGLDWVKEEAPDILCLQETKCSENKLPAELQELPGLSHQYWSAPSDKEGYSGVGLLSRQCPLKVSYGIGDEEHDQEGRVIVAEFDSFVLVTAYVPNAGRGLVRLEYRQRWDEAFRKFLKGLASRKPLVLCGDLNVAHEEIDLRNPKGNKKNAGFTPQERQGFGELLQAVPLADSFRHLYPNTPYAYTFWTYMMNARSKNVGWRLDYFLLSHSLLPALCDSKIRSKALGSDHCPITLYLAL
Test: qHTS Validation Assay for Inhibitors of the Human Apurinic/apyrimidinic Endonuclease 1 (APE1) (AID 1705;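 further: TAMRA fluorescence gain over two minutes as APE1 cuts a quenched THF abasic duplex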)
Details: purified APE1 endonuclease activity, fluorescence, titration; series mostly up to 57.1 µM
Inconclusive results are not listed. Activity calls are given as the source filed them. The call rests on the fitted dose curve; in most records, active means well fitted inhibition curve with a large enough effect; inconclusive means small, poorly fitted or top-dose-only effect; inactive means flat fitted curve, though single readings scatter.
# output must be one of Yes (active), No (inactive)

Test call for this compound, please: CN(CCOc1ccc(C[C@H](Nc2ccccc2C(=O)c2ccccc2)C(=O)O)cc1)c1ccccn1 No

What outcome does the record of this test show for CNC(=O)[C@H]1O[C@@H](n2cnc3c(NCc4ccc(N)cc4)ncnc32)[C@H](O)[C@H]1O ? No

---
Lab log entry: Nc1ncnc2c1ncn2[C@@H]1O[C@H](CO)[C@H](O)[C@H]1O — outcome as called in the assay? No

Each compound tested received a call. Report the one for Cc1cn([C@H]2C[C@@H](N=[N+]=[N-])[C@@H](CO)O2)c(=O)[nH]c1=O . No

* * *

Target: Glucocorticoid receptor (Homo sapiens)
Experiment: GR-EFC Redistribution (AID 451); further: potency means the concentration at half of the fitted maximal effect
Details: CHO-K1 GR-EFC translocation, beta-gal luminescence, 2 h
Procedure: NIH Molecular Libraries Screening Centers Network [MLSCN] NIH Chemical Genomics Center [NCGC] The glucocorticoid receptor (GR) is a cytoplasmic receptor that belongs to the nuclear receptor family of ligand-dependent transcription factors. […] GR-translocation was measured beta-gal enzyme activity using the PathHunter Detection Kit containing cell membrane permeablizing reagent and beta-gal substrate (DiscoveRx, Fremont, CA). […] Read plate in luminescence mode in ViewLux plate reader (PerkinElmer) […]
The source made the active and inactive calls. Calls follow the shape of the full dose curve.
value_type: Potency

Fill in: Potency of CS(=O)(=O)N1CCC2(CC1)CN(C(=O)Nc1cccc(C#N)c1)C2 is ___ > 46 µM (inactive)

Recorded Potency of O=c1c(CCc2ccccc2)nc2cnc(N3CCNCC3)nc2n1CCc1ccccc1 , please. > 46 µM (inactive)

Quick one: Potency of O=S(=O)(c1ccccc1)N1CCC[C@@]2(CCN(c3ccncc3)C2)C1 ? > 46 µM (inactive)

Quick one: Potency of O=C(Nc1cccc(F)c1)N1CCC2(CC1)CCN(S(=O)(=O)c1ccccc1)CC2 ? > 46 µM (inactive)

More entries:
May I ask what Potency has been recorded for CN(Cc1ccco1)c1cc(-c2ccccc2Cl)ncn1 ? > 46 µM (inactive)

* * *

Assay: qHTS drug screen for cell cycle checkpoint inhibitors in PARPi-resistant BRCA-mutant ovarian cancer cell lines. (AID 1963452)
Details: PEO1/OlaR viability, CellTiter-Glo luminescence, 96 h; measured here: PEO4 Z-AUC; stronger effect = lower value
Doc: threshold 0.2 (exclusive). Items with Z-AUC beneath it return 1 (yes); others return 0 (no).

Worked cases, answers included:
Dear reviewer, please state whether CC(=O)N1CCC(Nc2cc(C(=O)NC[C@H](O)CN3CCc4ccccc4C3)ncn2)CC1 has Z-AUC strictly beneath 0.2. 1 (yes)

Answer whether the molecule CCS(=O)(=O)Nc1ccc(Oc2ccc(F)cc2F)c(-c2cn(C)c(=O)c3[nH]ccc23)c1 has Z-AUC strictly less than 0.2 1 (yes)

Could you please tell me whether Z-AUC recorded for CNCCCOc1cc(F)c(-c2c(Cl)nc3ncnn3c2N[C@@H](C)C(F)(F)F)c(F)c1 is less than 0.2? 1 (yes)

Others:
Consider O=C(O)/C(S)=C/c1ccc(I)cc1 . Does its Z-AUC lie strictly below 0.2? 0 (no)

Where these numbers come from: PubChem BioAssay (NCATS)
